FYI, the data here is from paper PMC7534598.

measuredOn: furin (Homo sapiens)
Sequence (P09958 108-794): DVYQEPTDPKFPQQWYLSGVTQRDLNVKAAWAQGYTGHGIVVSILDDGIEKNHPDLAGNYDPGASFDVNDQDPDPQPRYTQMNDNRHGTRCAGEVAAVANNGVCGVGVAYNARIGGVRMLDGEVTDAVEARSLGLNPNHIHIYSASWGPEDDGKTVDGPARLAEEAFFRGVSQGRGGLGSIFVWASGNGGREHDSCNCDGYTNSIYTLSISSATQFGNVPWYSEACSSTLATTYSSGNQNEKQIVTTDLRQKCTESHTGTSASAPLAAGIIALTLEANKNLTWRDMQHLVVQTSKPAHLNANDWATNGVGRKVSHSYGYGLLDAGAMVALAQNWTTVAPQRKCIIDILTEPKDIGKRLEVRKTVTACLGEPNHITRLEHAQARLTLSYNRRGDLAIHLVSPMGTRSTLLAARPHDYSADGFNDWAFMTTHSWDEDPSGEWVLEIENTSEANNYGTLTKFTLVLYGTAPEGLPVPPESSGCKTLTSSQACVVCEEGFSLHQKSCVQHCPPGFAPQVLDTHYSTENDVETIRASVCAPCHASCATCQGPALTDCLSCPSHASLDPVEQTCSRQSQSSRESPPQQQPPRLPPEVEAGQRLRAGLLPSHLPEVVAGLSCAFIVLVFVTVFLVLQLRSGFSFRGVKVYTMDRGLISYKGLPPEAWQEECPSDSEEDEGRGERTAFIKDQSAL
Format: biochemical
pIC50: −log10 of the molar value.

smilesCode | pIC50
N=C(N)c1ccc(/N=N/Nc2ccc(C(=N)N)cc2)cc1 | 5.27
